System: Fibrinogen (Alexa647-labelled)
Experiment notes: fibrinogen binders on compound microarrays, profiling panel, artefact control for SMM control-protein annotation, biochemical, small-molecule microarray, 635/667 nm fluorescence (AID 1131);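 note: z-score merges 667 nm fluorescence with per-spot signal-to-noise over triplicate slides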
Condition set: fibrinogen-A647 binding fluorescence, higher = more signal
Metric: composite z-score
Respond numerically, and do not add a unit to the figure.

Return value of composite z-score for input `CCOC(=O)C[C@H]1[C@H](OC(=O)c2cc3ccccc3oc2=O)[C@@H](NC(=O)c2ccc3ccccc3c2)c2cc(OCCCO)ccc2N1C(=O)Cc1ccc(OC)cc1` , no commentary.
0.932

Return value of composite z-score for input `COc1ccc(NC(=O)O[C@H]2[C@@H]3OC(=O)[C@H](Cc4cccc(Br)c4)C/C=C/C[C@@H](Cc4cccc(Br)c4)C(=O)O[C@H]3[C@@H](OC)O[C@@H]2CO)cc1` , no commentary.
0.145

Return value of composite z-score for input C=C(C)C1CCC(C(O)C2C=CC3C(=O)N(C)C(=O)C3N2Nc2cc(OC)c(OC)c(OC)c2)CC1 (configuration not stated) , no commentary.
0.723

Return value of composite z-score for input CCCCCCCCCCC(O)C1C=CC2C(=O)N(c3ccccc3)C(=O)C2N1Nc1ccccc1F (configuration not stated) , no commentary.
0.415

Return value of composite z-score for input `COCCCNC(=O)[C@@]1(c2ccc([N+](=O)[O-])cc2)CC(=O)N(CC23CC4CC(CC(C4)C2)C3)[C@@H]1c1ccc(CO)cc1I` , no commentary.
0.705

Return value of composite z-score for input O=C1OCCC=C[C@H]2OC34C=CCN(c5ccc(Cl)cc5)C(=O)[C@H]3N(CCCCCCO)C(=O)[C@@H]4C12 (some centres not stated) , no commentary.
-1.17

Return value of composite z-score for input CC=CC(O)C1C=CC2C(=O)NC(=O)C2N1Nc1ccccn1 (configuration not stated) , no commentary.
0.657
